Entry source: patent US10738062B2

Property: EC50; scope: individual compounds
- Tested on: HCV replicon 1A
- assay_info: Cell-based HCV replicon assay (Replicon Assay A), replicon 1A
- Design: species or system Hepatitis C virus
- experimental_context: replicon RNA by real time PCR, day 3
recorded_endpoint: EC50 (pM)

compound: COC(=O)NC(C(=O)N1CCC[C@H]1c1ncc(-c2ccc3c(c2)cc2n3C(c3ccc4c(c3)OCCC4)Oc3cc(-c4cnc([C@@H]5CCCN5C(=O)[C@@H](NC(=O)OC)C(C)C)[nH]4)cc(F)c3-2)[nH]1)C1CCO[C@H](C)C1 (single isomer, unassigned)
result_unit: pM
quantitative_readout: 2.3
--
compound: COC(=O)NC(C(=O)N1CCC[C@H]1c1ncc(-c2ccc3c(c2)cc2n3C(c3ccc4c(c3)CCC(C)O4)Oc3cc(-c4cnc([C@@H]5CCCN5C(=O)[C@@H](NC(=O)OC)C(C)C)[nH]4)cc(F)c3-2)[nH]1)C1C[C@@H](C)O[C@@H](C)C1 (single isomer, unassigned)
result_unit: pM
quantitative_readout: 2.4
--
compound: COC(=O)N[C@H](C(=O)N1CCC[C@H]1c1ncc(-c2ccc3c(c2)OC(c2ccc4c(c2)CCCO4)n2c-3cc3cc(-c4cnc([C@@H]5C[C@H]6C[C@H]6N5C(=O)[C@@H](NC(=O)OC)C(C)C)[nH]4)ccc32)[nH]1)C(C)C (single isomer, unassigned)
result_unit: pM
quantitative_readout: 2.2
--
compound: COC(=O)N[C@H](C(=O)N1CCC[C@H]1c1ncc(-c2ccc3c(c2)OC(c2ccc4c(c2)OCCC4)n2c-3cc3cc(-c4cnc([C@@H]5C[C@H]6C[C@H]6N5C(=O)[C@@H](NC(=O)OC)C(C)C)[nH]4)ccc32)[nH]1)C(C)C (single isomer, unassigned)
result_unit: pM
quantitative_readout: 1.4
